Recorded phosphorylation enrichment for the following sequences
Biological target: MERTK (UniProt Q12866)
Sequence (Q12866 whole entry, looked up): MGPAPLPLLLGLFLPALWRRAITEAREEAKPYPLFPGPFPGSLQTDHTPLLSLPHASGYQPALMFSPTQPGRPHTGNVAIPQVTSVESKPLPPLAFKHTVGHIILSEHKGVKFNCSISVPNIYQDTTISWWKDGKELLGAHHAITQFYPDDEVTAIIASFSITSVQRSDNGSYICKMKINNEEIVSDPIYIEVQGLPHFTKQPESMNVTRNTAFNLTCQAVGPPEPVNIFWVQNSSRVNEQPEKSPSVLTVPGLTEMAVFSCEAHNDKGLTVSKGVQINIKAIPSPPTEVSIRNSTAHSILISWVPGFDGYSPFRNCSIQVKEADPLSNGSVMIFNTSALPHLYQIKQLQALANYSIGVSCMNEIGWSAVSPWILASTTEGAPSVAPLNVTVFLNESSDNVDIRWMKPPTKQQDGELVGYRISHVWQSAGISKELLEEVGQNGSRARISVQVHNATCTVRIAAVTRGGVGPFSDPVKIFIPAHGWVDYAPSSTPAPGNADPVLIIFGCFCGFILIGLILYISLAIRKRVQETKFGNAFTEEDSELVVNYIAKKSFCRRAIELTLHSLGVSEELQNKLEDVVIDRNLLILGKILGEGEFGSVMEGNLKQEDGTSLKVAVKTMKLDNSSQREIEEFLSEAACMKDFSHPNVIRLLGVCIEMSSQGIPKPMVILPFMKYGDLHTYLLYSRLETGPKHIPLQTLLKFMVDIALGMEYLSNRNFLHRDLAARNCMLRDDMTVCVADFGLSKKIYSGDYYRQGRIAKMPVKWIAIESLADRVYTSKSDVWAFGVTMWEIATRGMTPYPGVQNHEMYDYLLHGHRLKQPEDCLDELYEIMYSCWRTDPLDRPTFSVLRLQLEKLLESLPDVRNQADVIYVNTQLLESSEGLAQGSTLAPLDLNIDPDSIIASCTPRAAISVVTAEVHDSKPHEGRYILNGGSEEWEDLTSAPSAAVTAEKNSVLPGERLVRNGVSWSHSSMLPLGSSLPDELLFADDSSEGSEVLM
Experiment: phosphorylation enrichment, bacterial display (enrichment ratio); higher = better substrate or ligand; peptides without Tyr show the background;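 note: 11-residue human phosphosite peptides and single-mutation variants displayed on the E. coli surface, counted by deep sequencing, each peptide's frequency after selection divided by its frequency in the unselected input library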;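 note: frequency after pTyr selection over input frequency; kinase dosed for 20-30% of maximal phosphorylation in three min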
A bare number is all that is needed in reply.

PAIFTYDEFKK [COL8A2_Y648_T645I_YF]	0.594
HNVPICEGYAL [ACTC1_Y168_Y168C]	0.505
EILLSDLRTGF [TGM1_Y365_Y365D_YF]	0.378

Provide one value: measured phosphorylation enrichment of FVSIVYNDSGE [TSC2_Y1650]
0.571

Provide one value: measured phosphorylation enrichment of QTEAQYRFIFM [PTPN11_Y511_YF]
0.58
